Please respond with reported cell viability for every item in the list.
# Test system: TAZ-IND MCF10A-TAZ tumor cells
# Experiment summary: cell viability relative to DMSO control; higher = less cytotoxic; extreme values may be limits of the assay
# Test settings: 2.5 µM; 72 h
Answers are plain numbers, in %.

structure_smiles=CNC(=O)c1cc(Oc2ccc(NC(=O)Nc3ccc(Cl)c(C(F)(F)F)c3)cc2)ccn1 endpoint_value=100

Could you report cell viability for every entry in the following list?
1. C=CC(=O)Nc1cccc(Oc2nc(Nc3ccc(N4CCN(C)CC4)cc3OC)ncc2Cl)c1
2. N#CC(=C(/N)Sc1ccccc1N)/C(C#N)=C(\N)Sc1ccccc1N
3. O=C(NOC[C@H](O)CO)c1ccc(F)c(F)c1Nc1ccc(I)cc1F
4. Nc1nc(OCc2cc(Br)cs2)c2[nH]cnc2n1

OUTPUT:
1. 96
2. 89
3. 84
4. 97

* * *

# System: TAZ-IND MCF10A-TAZ tumor cells
# Experiment summary: cell viability relative to DMSO control; higher = less cytotoxic; extreme values may be limits of the assay
# Test settings: 0.65 µM; 72 h
Readout name: cell viability (%)
One number for each entry, in %.

molecule=O=C(O)c1cc2cccc([N+](=O)[O-])c2[nH]1 unit_annotation=% endpoint_value=100

Could you report cell viability for every entry in the following list?
1. NCCCC[C@@H]1NC(=O)[C@@H](Cc2ccc(O)cc2)NC(=O)[C@H](CC(=O)O)NC(=O)CNC(=O)[C@H](CCCN=C(N)N)NC1=O [Cyclo(RGDyK)]
2. CNCc1ccc(-c2cc(-c3nc(-c4ccc(S(=O)(=O)C(C)C)cc4)cnc3N)on2)cc1
3. CN(C)CCSSCCNC(=O)C1CCN(C(=O)CSc2ccc(Cl)cc2)CC1
4. Nc1nc(OCc2cc(Br)cs2)c2[nH]cnc2n1
5. CC(=O)c1c(C)c2cnc(Nc3ccc(N4CCNCC4)cn3)nc2n(C2CCCC2)c1=O
6. C=CC(=O)Nc1cccc(Oc2nc(Nc3ccc(N4CCN(C)CC4)cc3OC)ncc2Cl)c1
7. O=C([C@@H](Cc1cccc(C(F)(F)F)c1)NS(=O)(=O)c1cc(F)c2c(c1)CCNC2)N1CCCC1
8. CNC(=O)c1cc(Oc2ccc(NC(=O)Nc3ccc(Cl)c(C(F)(F)F)c3)cc2)ccn1

OUTPUT:
98
96
99
96
100
96
97
100

Could you report cell viability for every entry in the following list?
1. CC(C)N(CCCNC(=O)Nc1ccc(C(C)(C)C)cc1)C[C@H]1O[C@@H](n2cc(Br)c3c(N)ncnc32)[C@H](O)[C@@H]1O
2. O=C(NOC[C@H](O)CO)c1ccc(F)c(F)c1Nc1ccc(I)cc1F
3. COc1cc(F)c(F)c(Nc2ccc(I)cc2F)c1NS(=O)(=O)C1(C[C@H](O)CO)CC1 [Refametinib (RDEA119, Bay 86-9766)]

OUTPUT:
1: 94; 2: 82; 3: 84

* * *

Please respond with reported cell viability for every item in the list.
# Tested on: TAZ-DEP MCF10A-TAZ tumor cells
# Experiment summary: cell viability relative to DMSO control; higher = less cytotoxic; extreme values may be limits of the assay
# Test settings: 0.65 µM; 72 h
Numbers only, in %.

A selection of reference data follows.
compound=O=[N+]([O-])C=Cc1ccc2c(c1)OCO2 readout_name="cell viability" unit_annotation=% endpoint_value=100
compound=CNC(=O)c1cc(Oc2ccc(NC(=O)Nc3ccc(Cl)c(C(F)(F)F)c3)cc2)ccn1 readout_name="cell viability" unit_annotation=% endpoint_value=100
compound=CC(C)N(CCCNC(=O)Nc1ccc(C(C)(C)C)cc1)C[C@H]1O[C@@H](n2cc(Br)c3c(N)ncnc32)[C@H](O)[C@@H]1O readout_name="cell viability" unit_annotation=% endpoint_value=89
compound=COCCOc1cnc2ccn([C@H](C)c3nnc4c(F)cc(-c5cnn(C)c5)cn34)c(=O)c2c1 readout_name="cell viability" unit_annotation=% endpoint_value=88
compound=N#CC(=C(/N)Sc1ccccc1N)/C(C#N)=C(\N)Sc1ccccc1N readout_name="cell viability" unit_annotation=% endpoint_value=99

Could you report cell viability for every entry in the following list?
1. CCN(CC)CCCC(C)Nc1nc(C)cc(Nc2ccc3nc(C)cc(N)c3c2)n1 (stereo unspecified)
2. CCCCCCCCCCCC1=C(O)C(=O)C=C(O)C1=O
3. COc1cc(F)c(F)c(Nc2ccc(I)cc2F)c1NS(=O)(=O)C1(C[C@H](O)CO)CC1 [Refametinib (RDEA119, Bay 86-9766)]
4. Nc1nc(OCc2cc(Br)cs2)c2[nH]cnc2n1
5. C#Cc1cccc(Nc2ncnc3cc4c(cc23)OCCOCCOCCO4)c1
6. O=C1NC(=O)/C(=C/c2ccc(-c3ccc(F)cc3O)o2)S1

OUTPUT:
50
89
53
96
100
62

* * *

# Tested on: TAZ-DEP MCF10A-TAZ tumor cells
# Experiment summary: cell viability relative to DMSO control; higher = less cytotoxic; extreme values may be limits of the assay
# Test settings: 5 µM; 72 h
Readout name: cell viability (%)
Give bare numbers, in %.

A selection of reference data follows.
compound=CC(=O)c1c(C)c2cnc(Nc3ccc(N4CCNCC4)cn3)nc2n(C2CCCC2)c1=O readout_name="cell viability" endpoint_value=59
compound="NCCCC[C@@H]1NC(=O)[C@@H](Cc2ccc(O)cc2)NC(=O)[C@H](CC(=O)O)NC(=O)CNC(=O)[C@H](CCCN=C(N)N)NC1=O [Cyclo(RGDyK)]" readout_name="cell viability" endpoint_value=49
compound=CC(C)(C)c1ccc(S(=O)(=O)NCc2ccc(C(=O)Nc3cccnc3)cc2)cc1 readout_name="cell viability" endpoint_value=99
compound=Nc1nc(OCc2cc(Br)cs2)c2[nH]cnc2n1 readout_name="cell viability" endpoint_value=55
compound=O=C(NOC[C@H](O)CO)c1ccc(F)c(F)c1Nc1ccc(I)cc1F readout_name="cell viability" endpoint_value=47

Could you report cell viability for every entry in the following list?
1. CNCc1ccc(-c2cc(-c3nc(-c4ccc(S(=O)(=O)C(C)C)cc4)cnc3N)on2)cc1
2. COc1ccccc1S(=O)(=O)Nc1ccc2c(c1)CN(C)C(=O)N2
3. CC(C)N(CCCNC(=O)Nc1ccc(C(C)(C)C)cc1)C[C@H]1O[C@@H](n2cc(Br)c3c(N)ncnc32)[C@H](O)[C@@H]1O
4. CN1CCN(CCCNc2ncc(Cl)c(-c3cc4c(C(=O)NC5CC5)cccc4s3)n2)CC1
5. CN(C)CCSSCCNC(=O)C1CCN(C(=O)CSc2ccc(Cl)cc2)CC1
6. COCCOc1cnc2ccn([C@H](C)c3nnc4c(F)cc(-c5cnn(C)c5)cn34)c(=O)c2c1

OUTPUT:
23
54
63
63
66
68

Could you report cell viability for every entry in the following list?
1. C#Cc1cccc(Nc2ncnc3cc4c(cc23)OCCOCCOCCO4)c1
2. CCn1c2ccccc2c2cc(CNCc3ccccc3OC)ccc21
3. O=C(/C=C/c1ccc2ccccc2n1)c1ccncc1
4. CCCCCCCCCCCC1=C(O)C(=O)C=C(O)C1=O
5. CNC(=O)c1cc(Oc2ccc(NC(=O)Nc3ccc(Cl)c(C(F)(F)F)c3)cc2)ccn1
6. C=CC(=O)Nc1cccc(Oc2nc(Nc3ccc(N4CCN(C)CC4)cc3OC)ncc2Cl)c1

OUTPUT:
1. 89
2. 89
3. 47
4. 57
5. 84
6. 33

INPUT: Field: cell viability (TAZ-DEP MCF10A-TAZ tumor cells). Entry: O=[N+]([O-])C=Cc1ccc2c(c1)OCO2
OUTPUT: 78

* * *

Please respond with reported cell viability for every item in the list.
# System: TAZ-IND MCF10A-TAZ tumor cells
# Experiment summary: cell viability relative to DMSO control; higher = less cytotoxic; extreme values may be limits of the assay
# Test settings: 2.5 µM; 72 h
One number for each entry, in %.

molecule="C#Cc1cccc(Nc2ncnc3cc4c(cc23)OCCOCCOCCO4)c1 [Icotinib]" endpoint_value=100
molecule=O=C(O)c1cc2cccc([N+](=O)[O-])c2[nH]1 endpoint_value=100
molecule="NCCCC[C@@H]1NC(=O)[C@@H](Cc2ccc(O)cc2)NC(=O)[C@H](CC(=O)O)NC(=O)CNC(=O)[C@H](CCCN=C(N)N)NC1=O [Cyclo(RGDyK)]" endpoint_value=86
molecule="CCn1c2ccccc2c2cc(CNCc3ccccc3OC)ccc21 [HLCL-61]" endpoint_value=100

We next turn to a different molecule, shown below.
INPUT: Which cell viability reading was recorded for the molecule O=[N+]([O-])C=Cc1ccc2c(c1)OCO2 ?
OUTPUT: 98

* * *

# System: TAZ-DEP MCF10A-TAZ tumor cells
# Experiment summary: cell viability relative to DMSO control; higher = less cytotoxic; extreme values may be limits of the assay
# Test settings: 0.65 µM; 72 h
Please respond with reported cell viability for every item in the list.
Quick note: number first, unit second.

A selection of reference data follows.
compound="NCCCC[C@@H]1NC(=O)[C@@H](Cc2ccc(O)cc2)NC(=O)[C@H](CC(=O)O)NC(=O)CNC(=O)[C@H](CCCN=C(N)N)NC1=O [Cyclo(RGDyK)]" measured_target="TAZ-DEP MCF10A-TAZ tumor cells" endpoint_value=99%
compound=COc1ccccc1S(=O)(=O)Nc1ccc2c(c1)CN(C)C(=O)N2 measured_target="TAZ-DEP MCF10A-TAZ tumor cells" endpoint_value=91%
compound=CN1CCN(CCCNc2ncc(Cl)c(-c3cc4c(C(=O)NC5CC5)cccc4s3)n2)CC1 measured_target="TAZ-DEP MCF10A-TAZ tumor cells" endpoint_value=74%
compound=O=C([C@@H](Cc1cccc(C(F)(F)F)c1)NS(=O)(=O)c1cc(F)c2c(c1)CCNC2)N1CCCC1 measured_target="TAZ-DEP MCF10A-TAZ tumor cells" endpoint_value=94%
compound=CC(=O)c1c(C)c2cnc(Nc3ccc(N4CCNCC4)cn3)nc2n(C2CCCC2)c1=O measured_target="TAZ-DEP MCF10A-TAZ tumor cells" endpoint_value=79%

Could you report cell viability for every entry in the following list?
1. CN(C)CCSSCCNC(=O)C1CCN(C(=O)CSc2ccc(Cl)cc2)CC1
2. CCn1c2ccccc2c2cc(CNCc3ccccc3OC)ccc21

OUTPUT:
1: 96%; 2: 100%

Could you report cell viability for every entry in the following list?
1. O=C(NOC[C@H](O)CO)c1ccc(F)c(F)c1Nc1ccc(I)cc1F
2. CCc1nc(N)nc(N)c1-c1ccc(Cl)cc1

OUTPUT:
1. 52%
2. 100%
